Sourced from the supplement of paper PMC9170038

apparent KD of MS2 coat protein values, listed per item
Tested on: MS2 coat protein
Method Description: apparent KD of MS2 coat protein; designed switch direction (-1 OFF switch, 1 ON switch): 1; higher = weaker reporter binding
Condition Notes: input ligand: none
Form field: result (number plus unit)

Below, each entry is followed by its recorded apparent KD of MS2 coat protein result.
Query for MS2 coat protein: what apparent KD of MS2 coat protein does the record show for ACUAAAACUGCAGGAUAUGUCCGGAACUCCGUUACAGAAGGGCAACGCACUGUUGAGGGCACGACAUGAGGAUCACCCAUGUAG [Eternabot solution 46] (Eterna round: R96, puzzle: Same State NG 1) ? 26.8 nM

Missing value: apparent KD of MS2 coat protein, MS2 coat protein, entry AUUGCUUACGCAGGAUAUGAUGUGGAAACUGCGUCAGAAGGGUGAACAGUAUCGUUGCAAGAGGACAUGAGGAUCACCCAUGUC [SameState NG1 #98] (Eterna round: R96, puzzle: Same State NG 1) . Fill in? 31.4 nM

Enter reported apparent KD of MS2 coat protein observed with MS2 coat protein for GGACGUCAUCUCACUGAUUAAACAUGAGGAUCACCCAUGUCACAGGAUAUGAGUCCGAUUAGGACUCAGAAGGGUGUGACGUCC [Fiskers NG3ss - 45] (Eterna round: R96, puzzle: Same State NG 3) 22.9 nM

Others:
Param readout= apparent KD of MS2 coat protein; system= MS2 coat protein; entry= GUAGCAUACCGAGGAUAUUCAUAUUACAUGAGGAUCACCCAUGUUAUUUAGGCCAAAAGGCCUUGGGAGAAGGCGGAAUGCUAC [Xeonanis - 20 Mod8] (Eterna round: R96, puzzle: Same State NG 2) ; returns value. 18.2 nM

----------
Tested on: K4 kissing-loop RNA reporter;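 note: bound reporter read as fluorescence of individual clusters on recovered sequencing chips by microscopy, with normalized cluster intensities fitted with a binding model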
Method Description: apparent KD of K4 kissing-loop reporter; higher = weaker reporter binding
Condition Notes: Eterna round: R107; input ligand: theophylline 20 uM
Class definitions on apparent KD of K4 kissing-loop reporter: bottom range (below 200 nM), center range (200 nM to below 400 nM), top range (400 nM or more)

Record excerpt, results attached:
Please let me know in which category the item AAAUUGUUUAGAGGAUAUUCUUUAUUCGACAUAACCUUCUAUAAGGUGCAGUGAUGUUGCAAUAUAGGAGAAGGUUGAGUGAUAA [Exclusion FMN B Gf 15] belongs. bottom range

Returns: class label. Input: AGUGUUAGGUUAGAUACCAGCCGUUCGUGAAUAAUCCUCGAACCGCCAGUGAUGUUGGCAGGCCCUUGGCAGCUAACAGAACAGA [Maxeusla] bottom range

Lab log: UAUACUAGACAAGAGAGAAUUCUCUCAAGAGAGGAUAUCCGAAUUCGGAGAAGGCUCUCUCAGUGAUGUUGGGAAUAGUCUAGAA [AK6 SS FMN A] — assign apparent KD of K4 kissing-loop reporter category center range

New cases:
Bin? GUAUCGCUAGGAGGAUAUUUCAAUCUGACUCUUUGAGUUAGUACGGAGUGAUGUUCCGAUUUACGGAAAGAAGGCCUAGUGAUAC [FMN B 11] center range

For UUCAGGUGUUCGGCCGCCACUCCAGUGAUGUUGGAGUGGCUUCACAAGGACCAGGACAAUGUAAGGAGGACCGGGAAUAUCGCAG [Leerat] , which apparent KD of K4 kissing-loop reporter bin applies? bottom range

Input UUUCGUUGAAGUGAUACCAGACUUGAAAGUGAUGUUUUCCAAUAAUUUAAAUUAUUAGCUGUCCCUUGGCAGCACAGUUUAUUUA [JR_ExcTheophyB_Sub007] ; output its category top range

Hey, which category is "UCCUGCAAUCGUCCACGAAAGUGGAUUGAUACCAGAGUCGAAAGACUCCCUUGGCAGCGAGUGAUGUUCGAAGCAGGUAAAUAAA" in, do you know? center range

Determine which band this sequence sits in: UGUAUGUGAUUUGAUACCAGACCAUCUUGUGAAUGAUGAGUGAUGUUUAUUAUGGUUUGGGUCCCUUGGCAGCAAAUCGCAUACU [KL-SSTheoB25] top range

Band for UGUCAUGGAAACAUGAACGUUGAUGUUCGACGAGGACCGGUACGGCCGCCACUCGAGUAAUAGUCAGUGAUGUUGACUUGUCUAA [KL-SSTryp-A form1 sub3] ? bottom range

For this sequence, which bin applies? AGUGAAGUUAGUGAUGUGUGAGUUUGGGAAGGAGCGCCGAGAACGGCAGGUAGGUCGCCCAGUGAUGUUGGUGUAAAGAUGAGAG [whbob_Ex_Arginine_A_2t121] center range

Form: Item = AAAUAAUGCAGUCACCCAGUGAUGUUGGAAGGAGCGUGCGAAAGCACAGGUAGGUCGCCAAUAAUGAUAAAGUUCAGUGGCUUUA [JR_Nu_ExcArginiA_Sub030] ; Class = ? top range

Assign a bin to CGCCGGAAGGCGAGCGCUCCCACUCCGGAAGGAGCGCCCGAAAGGGCAGGUAGGUCGCCGGAGUGAUGUUCCGGUGGAGGGCUCG [#2 Exclusion - Arginine A Attempt #29 (Inspired by Omei)] center range

For UUUGGUUUCUCGGCCGCCACUCGUUGUCUAUCGGCUUCAGGGAUAUAGUGAUGUUAUGUAUAGAAGAGGACCGGGAGAAGGUUCU [ExTryptoB.Dx] , which apparent KD of K4 kissing-loop reporter bin applies? center range

Bin? AGAUUCUUUUUUUUAUUUAAGUUUUCAGAAGGAGCGUGGUAGUACACAGGUAGGUCGCUGAAUUUUGGGCUAGUGAUGUUAGUUA [whbob_SS_Arginine_A_sa115] center range

State the class of the sequence shown: GCCAGUGAUGUUGGCAUUUCGAGCCAUGAAGGAGCGCACGGAAGUGCAGGUAGGUCGCAUGGUACUUAAGAUAUUAUCCUAAGUA [Atceis] bottom range

Categorize the following entry: GCAGUGAUGUUGCGCAUGUACAGUGGAGUGCGAGGACCGGUACGGCCGCCACUCGUACAGAACAAGCUAAUAUAUGGAUAGGUGA [IX] top range

Form field 'band' for UGUAUAUGAUGUGAUACCAGUGAAGAGCCAGUGAUGUUGGUAGAACUGGUAUAUAAAUAACACCCUUGGCAGCACAAUCACGUAC [whbob_Ex_Theo_B_sa98] center range
